molecular target: Siglec-4a (MAG); test: Hapten inhibition assay, Siglec-4a (MAG); conditions: read-out: Siglec-4a (MAG) IC50; unit inferred
pIC50: −log10 of the molar value.
propertyMeasured: pIC50

The following compounds have reported results that may help.
COC(=O)C1(OC)CC(O)C(NC(=O)CF)C(C(O)C(O)CO)O1 (stereo not shown)
3.55
CO[C@]1(C(=O)O)C[C@H](O)[C@@H](NC(C)=O)[C@H]([C@H](O)[C@H](O)CNC(C)=O)O1
2.67

(a) CO[C@]1(C(=O)O)C[C@H](O)[C@@H](NC(C)=O)[C@H]([C@H](O)[C@H](O)CNC(=O)c2cccc3ccccc23)O1
(b) CC(=O)N[C@H]1[C@H]([C@H](O)[C@H](O)CO)O[C@@](SCc2ccccc2)(C(=O)O)C[C@@H]1O
(c) CCCC(=O)N[C@H]1[C@H]([C@H](O)[C@H](O)CO)O[C@@](OCc2ccccc2)(C(=O)O)C[C@@H]1O
(d) CO[C@]1(C(=O)O)C[C@H](O)[C@@H](NC(C)=O)[C@H]([C@H](O)[C@H](O)CNC(=O)c2cccnc2)O1
[ask] Could you please order the items by pIC50, going from the lowest number to the highest? Reply with the labels, ordered as the question asks.
[reply] c, b, a, d
(c: 2.28, b: 2.70, a: 4.25, d: 4.60)

====

Target: Siglec-2 (human CD22) (Homo sapiens)
Sequence (P20273 20-138 limits assumed): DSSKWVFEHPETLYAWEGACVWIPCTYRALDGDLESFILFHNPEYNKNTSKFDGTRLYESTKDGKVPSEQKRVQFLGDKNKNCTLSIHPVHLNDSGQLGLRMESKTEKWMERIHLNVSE
Assay: Hapten inhibition assay, Siglec-2 (human CD22)
Assay type: binding
Settings: unit inferred
pIC50: −log10 of the molar value.
propertyMeasured: pIC50

The following compounds have reported results that may help.
CO[C@]1(C(=O)O)C[C@H](O)[C@@H](NC(C)=O)[C@H]([C@H](O)[C@H](O)CNC(=O)c2ccccc2-c2ccccc2)O1
4.01
CO[C@]1(C(=O)O)C[C@H](O)[C@@H](NC(C)=O)[C@H]([C@H](O)[C@H](O)CNC(=O)c2cccc3ccccc23)O1
4.43
CO[C@]1(C(=O)O)C[C@H](O)[C@@H](NC(C)=O)[C@H]([C@H](O)[C@H](O)CNC(=O)c2cccnc2)O1
3.35
COC1(C(=O)O)CC(O)C(NC(C)=O)C(C(O)C(O)CNC(=O)c2ccc3ccccc3c2)O1 (stereo not drawn)
5.22
CO[C@]1(C(=O)O)C[C@H](O)[C@@H](NC(C)=O)[C@H]([C@H](O)[C@H](O)CNC(C)=O)O1
2.74
CO[C@]1(C(=O)O)C[C@H](O)[C@@H](NC(C)=O)[C@H]([C@H](O)[C@H](O)CO)O1 [Methyl-α-Neu5Ac, reference compound]
2.86

(1) CO[C@]1(C(=O)O)C[C@H](O)[C@@H](NC(C)=O)[C@H]([C@H](O)[C@H](O)CNC(=O)Cc2ccc3ccccc3c2)O1
(2) CO[C@]1(C(=O)O)C[C@H](O)[C@@H](NC(C)=O)[C@H]([C@H](O)[C@H](O)CNC(=O)C(c2ccccc2)c2ccccc2)O1
(3) COc1ccc(C(=O)NC[C@@H](O)[C@@H](O)[C@@H]2O[C@@](OC)(C(=O)O)C[C@H](O)[C@H]2NC(C)=O)cc1
(4) CO[C@]1(C(=O)O)C[C@H](O)[C@@H](NC(C)=O)[C@H]([C@H](O)[C@H](O)CNC(=O)C2CCCCC2)O1
[ask] Could you please order the items by pIC50, going from the lowest number to the highest? Reply with the labels, ordered as the question asks.
[reply] 4, 3, 2, 1
(4: 3.42, 3: 3.92, 2: 4.46, 1: 5.10)

====

Molecular target: Siglec-2 (human CD22) (Homo sapiens)
Sequence (P20273 20-138 limits assumed): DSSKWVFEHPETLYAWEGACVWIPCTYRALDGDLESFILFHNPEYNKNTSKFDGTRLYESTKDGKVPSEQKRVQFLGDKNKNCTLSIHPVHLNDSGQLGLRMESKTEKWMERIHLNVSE
Experiment: Hapten inhibition assay, Siglec-2 (human CD22)
Type: binding
Details: unit inferred
propertyMeasured: IC50 (µM)

COC1(C(=O)O)CC(O)C(NC(C)=O)C(C(O)C(O)CNC(=O)c2c(F)c(F)c(F)c(F)c2F)O1 (stereo not shown)
360

(I) CO[C@]1(C(=O)O)CC(O)[C@@H](NC(C)=O)C([C@@H](O)[C@H](O)CNC(=O)c2ccc(-c3ccccc3)cc2)O1 (stereo partly shown)
(II) CO[C@]1(C(=O)O)C[C@H](O)[C@@H](NC(=O)CO)[C@H]([C@H](O)[C@H](O)CO)O1 [Methyl-α-5-N-glycolyl-neuraminic acid]
[ask] Please indicate which has the smaller reported IC50: I , or II . Indicate your choice by writing its label.
[reply] I

====

Biological target: Siglec-2 (murine CD22) (Mus musculus)
Sequence (P35329 22-148 limits assumed): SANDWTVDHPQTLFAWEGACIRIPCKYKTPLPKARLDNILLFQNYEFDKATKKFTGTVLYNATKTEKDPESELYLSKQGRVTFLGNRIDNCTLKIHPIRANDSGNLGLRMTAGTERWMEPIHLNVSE
Assay: Hapten inhibition assay, Siglec-2 (murine CD22)
Format: binding
Conditions: bounds given in mM
propertyMeasured: IC50

COC1(C(=O)O)CC(O)C(O)C(C(O)C(O)CO)O1 (stereo not drawn) [Methyl-α-ketodesoxy-nonulsonic acid]
> 2 mM

Here is the next item to consider.
[ask] Short answer please: IC50, Siglec-2 (murine CD22) (Mus musculus), entry COC1(C(=O)O)CC(O)C(NC(C)=O)C(C(O)C(O)CNC(=O)c2ccc3ccccc3n2)O1 (centres unmarked)
[reply] > 10 mM

====

target: UniProt Q62230; experiment: Hapten inhibition assay, Siglec-1 (sialoadhesin); assay type: binding; settings: at the concentration of the IC50 bound; meaning not defined in the patent
propertyMeasured: Siglec-1 (sialoadhesin) percentage in parentheses below the IC50 bound

COC1(C(=O)O)CC(O)C(NC(C)=O)C(C(O)C(O)CNC(=O)C(N)=O)O1 (centres unmarked)
(57%)
COC1(C(=O)O)CC(O)C(NC(C)=O)C(C(O)C(O)CNC(=O)CNC(=O)CNC(=O)CN)O1 (centres unmarked)
(11%)
O=C(NC1C(O)CC(OCc2ccccc2)(C(=O)O)OC1C(O)C(O)CO)c1ccccc1 (centres unmarked)
(63%)
COC1(C(=O)O)CC(O)C(NC(C)=O)C(C(O)C(O)C(=O)O)O1 (centres unmarked)
(63%)
CCOc1c(N[C@H]2[C@H]([C@H](O)[C@H](O)CO)O[C@@](OC)(C(=O)O)C[C@@H]2O)c(=O)c1=O
(92%)

[ask] Short answer please: Siglec-1 (sialoadhesin) percentage in parentheses below the IC50 bound, UniProt Q62230, entry CO[C@]1(C(=O)O)C[C@H](O)[C@@H](NC(C)=O)[C@H]([C@H](O)[C@H](O)CNC(=O)C(CNC(C)=O)NC(C)=O)O1 (some centres unmarked)
[reply] (80%)

[ask] # repeat for COC1(C(=O)O)CC(O)C(O)C(C(O)C(O)CO)O1 (centres unmarked)
[reply] (74%)

====

target: Siglec-1 (sialoadhesin) (Mus musculus, UniProt Q62230); experiment: Hapten inhibition assay, Siglec-1 (sialoadhesin); format: binding; settings: quotient IC50 reference compound / IC50 compound
Sequence (Q62230 20-136 limits assumed): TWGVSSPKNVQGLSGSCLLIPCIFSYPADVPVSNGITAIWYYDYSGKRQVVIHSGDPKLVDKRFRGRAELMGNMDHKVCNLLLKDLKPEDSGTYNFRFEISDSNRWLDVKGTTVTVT
propertyMeasured: Siglec-1 (sialoadhesin) rIP

CO[C@]1(C(=O)O)CC(O)[C@@H](NC(C)=O)C([C@@H](O)[C@H](O)CNC(=O)c2ccc(-c3ccccc3)cc2)O1 (stereo partly drawn)
13
COC1(C(=O)O)CC(O)C(NC(C)=O)C(C(O)C(O)CNC(=O)c2ccc3ccccc3c2)O1 (stereo not drawn)
12
CO[C@]1(C(=O)O)C[C@H](O)[C@@H](NC(C)=O)[C@H]([C@H](O)[C@H](O)CNC(C)=O)O1
0.2
CO[C@]1(C(=O)O)C[C@H](O)[C@@H](NC(C)=O)[C@H]([C@H](O)[C@H](O)CNC(=O)C(c2ccccc2)c2ccccc2)O1
0.2
CO[C@]1(C(=O)O)C[C@H](O)[C@@H](NC(C)=O)[C@H]([C@H](O)[C@H](O)CNC(=O)Cc2ccc3ccccc3c2)O1
0.5

(a) CO[C@]1(C(=O)O)C[C@H](O)[C@@H](NC(C)=O)[C@H]([C@H](O)[C@H](O)CNC(=O)c2ccccc2-c2ccccc2)O1
(b) CO[C@]1(C(=O)O)C[C@H](O)[C@@H](NC(C)=O)[C@H]([C@H](O)[C@H](O)CNC(=O)c2ccccc2)O1
[ask] Please indicate which has the smaller reported Siglec-1 (sialoadhesin) rIP: a , or b . Indicate your choice by writing its label.
[reply] a

src = patent US7820714B2
